Measured protein stability index values are reported for all entries that follow.
B1: CD69 (parent)
chain: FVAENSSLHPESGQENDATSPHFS

Variants of: B1
Test: protein stability index of a GFP-peptide fusion (GPS, HEK-293T) (PSI 1-6); higher = more stable;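 also: lentivirally expressed fusions sorted by FACS into six bins by GFP to DsRed ratio, PSI derived from sequencing read proportions per bin multiplied by bin number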
Conditions: c terminus: a fixed tail appended
Kindly provide the number alone.

// below: answered variants
| residueChange | protein stability index |
| --- | --- |
| G13T | 3.59 |
| V2T | 5.17 |
| A3Y | 3.02 |
| G13I | 2.61 |
| H22D | 3.79 |
| F23L | 3.55 |
| T19A | 3.35 |
| T19G | 3.24 |

The recorded protein stability index for A3Q is 3.27

The recorded protein stability index for S20A is 3.16

The recorded protein stability index for T19H is 3.19
